Each recorded value in this set is attributed to BigSolDB 2.1.

conditions: in ethyl acetate, 308.15 K
READOUT KIND: solubility (mole fraction)
Answers are plain numbers.

Req: Quick one: solubility (mole fraction) for CCOC(=O)c1c(CSc2ccccc2)n(C)c2cc(Br)c(O)c(CN(C)C)c12.Cl.O ?
Resp: 0.000158

----------
details: in acetone, 323.15 K
READOUT KIND: solubility (mole fraction)
One number for each entry.

Req: What does the data say about its solubility (mole fraction)? Entry: CCOC(=O)c1c(CSc2ccccc2)n(C)c2cc(Br)c(O)c(CN(C)C)c12.Cl.O
Resp: 0.00128

----------
settings: in ethanol, 318.15 K
READOUT KIND: solubility (mole fraction)
Answers are plain numbers.

Req: # get_value(readout='solubility (mole fraction)', item= CCOC(=O)c1c(CSc2ccccc2)n(C)c2cc(Br)c(O)c(CN(C)C)c12.Cl.O )
Resp: 0.0234

----------
details: in methanol, 323.15 K
READOUT KIND: solubility (mole fraction)
One number for each entry.

Req: # query: solubility (mole fraction) of entry CCOC(=O)c1c(CSc2ccccc2)n(C)c2cc(Br)c(O)c(CN(C)C)c12.Cl.O
Resp: 0.0786

----------
settings: in methanol, 303.15 K
READOUT KIND: solubility (mole fraction)
One number for each entry.

Req: I would be grateful if you could share the reported solubility (mole fraction) for CCOC(=O)c1c(CSc2ccccc2)n(C)c2cc(Br)c(O)c(CN(C)C)c12.Cl.O .
Resp: 0.0494

----------
details: in NMP, 303.15 K
READOUT KIND: solubility (mole fraction)

Req: Dear colleague, I am looking for the recorded solubility (mole fraction) of the following compound: CCOC(=O)c1c(CSc2ccccc2)n(C)c2cc(Br)c(O)c(CN(C)C)c12.Cl.O
Resp: 0.0375

----------
conditions: in NMP, 293.15 K
READOUT KIND: solubility (mole fraction)
Numbers only.

Req: Reported solubility (mole fraction) for CCOC(=O)c1c(CSc2ccccc2)n(C)c2cc(Br)c(O)c(CN(C)C)c12.Cl.O : what is it?
Resp: 0.0325

----------
conditions: in THF, 313.15 K
READOUT KIND: solubility (mole fraction)
One number for each entry.

Req: Entry CCOC(=O)c1c(CSc2ccccc2)n(C)c2cc(Br)c(O)c(CN(C)C)c12.Cl.O : reported solubility (mole fraction) = ?
Resp: 0.00125

----------
details: in isopropanol, 293.15 K
READOUT KIND: solubility (mole fraction)

Req: Look up solubility (mole fraction): CCOC(=O)c1c(CSc2ccccc2)n(C)c2cc(Br)c(O)c(CN(C)C)c12.Cl.O
Resp: 0.00114

----------
details: in ethanol, 313.15 K
READOUT KIND: solubility (mole fraction)
One number for each entry.

Req: What value of solubility (mole fraction) has been recorded for this entry: CCOC(=O)c1c(CSc2ccccc2)n(C)c2cc(Br)c(O)c(CN(C)C)c12.Cl.O
Resp: 0.018

----------
conditions: in isopropanol, 308.15 K
READOUT KIND: solubility (mole fraction)
One number for each entry.

Req: Look up solubility (mole fraction) for this compound: CCOC(=O)c1c(CSc2ccccc2)n(C)c2cc(Br)c(O)c(CN(C)C)c12.Cl.O
Resp: 0.0029

----------
conditions: in ethanol, 298.15 K
READOUT KIND: solubility (mole fraction)
One number for each entry.

Req: Reported solubility (mole fraction) for CCOC(=O)c1c(CSc2ccccc2)n(C)c2cc(Br)c(O)c(CN(C)C)c12.Cl.O : what is it?
Resp: 0.0116
